Target: TCPTP (Homo sapiens, UniProt P17706)
Sequence (P17706 whole entry): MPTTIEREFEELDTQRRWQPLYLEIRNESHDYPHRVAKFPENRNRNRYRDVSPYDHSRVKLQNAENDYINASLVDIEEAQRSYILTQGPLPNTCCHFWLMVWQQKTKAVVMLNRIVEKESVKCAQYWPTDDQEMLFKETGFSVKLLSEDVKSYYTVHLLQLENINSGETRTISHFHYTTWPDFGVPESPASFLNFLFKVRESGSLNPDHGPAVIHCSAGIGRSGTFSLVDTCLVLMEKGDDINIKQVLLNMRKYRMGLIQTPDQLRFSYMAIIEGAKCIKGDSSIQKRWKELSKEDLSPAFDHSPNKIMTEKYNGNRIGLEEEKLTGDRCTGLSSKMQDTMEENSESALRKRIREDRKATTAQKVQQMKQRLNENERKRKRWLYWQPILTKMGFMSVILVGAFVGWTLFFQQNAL
Assay: Protein phosphatase inhibition assay, TCPTP
pIC50: −log10 of the molar value.

compound	pIC50
COc1cc2ccncc2c(O)c1Cc1c(OC)cc2ccncc2c1O [Compound 3, Puniceusine C]	< 3.70
CCc1oc(=O)c(Cc2c(OC)cc3ccncc3c2O)c(O)c1C [Compound 13, Puniceusine M]	< 3.70
COc1cc2ccncc2c(O)c1CC(C)C(=O)O (centres unmarked) [Compound 6, Puniceusine F]	< 3.70
COc1cc2ccncc2c(O)c1Cc1c(O)cc(O)c(OC)c1C(=O)C(C)=O [Compound 8, Puniceusine H]	< 3.70
COc1cc2ccncc2c2c(C)c(O)c(C)cc12 [Compound 7, Puniceusine G]	< 3.70
COc1cc2ccncc2c(O)c1Cc1c(O)cc(O)c2c1[C@@H](C)OC2 [Compound 9, Puniceusine I]	4.24
COc1cc(O)c2cnccc2c1 [Compound 1, 6-methoxy-8-hydroxy-isoquinolin]	3.71
CCC(=O)c1c(C)c(O)c(Cc2c(OC)cc3ccncc3c2O)c(O)c1O [Compound 10, Puniceusine J]	< 3.70

====

Molecular target: CD45 (Homo sapiens)
Experiment: Protein phosphatase inhibition assay, CD45
Conditions: read-out: Inhibitory Effect against Phosphatases (IC50) CD45
pIC50: −log10 of the molar value.

molecule	pIC50
CC(=O)c1ccc(NC2=C(Cl)C(=O)c3ccccc3C2=O)cc1 [AACQ, reference compound]	6.54

====

Molecular target: CD45 (Homo sapiens, UniProt P08575)
Sequence (P08575 26-1306): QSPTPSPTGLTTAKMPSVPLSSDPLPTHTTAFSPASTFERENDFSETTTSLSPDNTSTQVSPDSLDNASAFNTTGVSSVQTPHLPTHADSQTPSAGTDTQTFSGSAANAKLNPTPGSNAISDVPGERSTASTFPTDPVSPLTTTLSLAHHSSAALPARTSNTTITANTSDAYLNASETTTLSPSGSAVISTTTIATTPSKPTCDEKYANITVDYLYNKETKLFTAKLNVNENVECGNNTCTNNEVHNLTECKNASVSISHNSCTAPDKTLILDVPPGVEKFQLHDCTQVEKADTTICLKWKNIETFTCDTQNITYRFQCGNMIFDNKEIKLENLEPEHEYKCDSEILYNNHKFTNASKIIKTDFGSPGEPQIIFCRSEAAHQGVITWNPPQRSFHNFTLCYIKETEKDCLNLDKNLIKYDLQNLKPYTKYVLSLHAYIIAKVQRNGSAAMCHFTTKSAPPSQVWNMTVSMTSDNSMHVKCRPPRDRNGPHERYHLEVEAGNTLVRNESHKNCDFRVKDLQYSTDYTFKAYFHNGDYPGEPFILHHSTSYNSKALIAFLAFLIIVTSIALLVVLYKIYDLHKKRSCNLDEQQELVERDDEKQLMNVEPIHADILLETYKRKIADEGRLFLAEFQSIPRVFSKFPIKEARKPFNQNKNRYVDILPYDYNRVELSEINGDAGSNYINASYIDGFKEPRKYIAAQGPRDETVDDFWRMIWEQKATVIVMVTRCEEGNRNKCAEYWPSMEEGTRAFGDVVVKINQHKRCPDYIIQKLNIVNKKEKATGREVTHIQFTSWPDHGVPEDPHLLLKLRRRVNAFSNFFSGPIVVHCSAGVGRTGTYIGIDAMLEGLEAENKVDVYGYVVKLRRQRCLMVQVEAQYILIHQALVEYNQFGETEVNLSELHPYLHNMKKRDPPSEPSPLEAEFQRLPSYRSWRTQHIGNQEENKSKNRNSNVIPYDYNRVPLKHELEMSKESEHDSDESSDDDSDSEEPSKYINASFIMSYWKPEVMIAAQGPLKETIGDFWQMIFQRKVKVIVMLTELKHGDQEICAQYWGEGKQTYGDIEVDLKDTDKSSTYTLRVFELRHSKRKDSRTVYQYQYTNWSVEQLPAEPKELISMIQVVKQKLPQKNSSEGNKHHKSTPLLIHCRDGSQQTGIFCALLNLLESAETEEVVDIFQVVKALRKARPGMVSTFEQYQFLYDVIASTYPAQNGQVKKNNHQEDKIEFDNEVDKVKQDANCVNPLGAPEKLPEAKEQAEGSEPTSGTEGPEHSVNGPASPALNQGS
Assay: Protein phosphatase inhibition assay, CD45
pIC50: −log10 of the molar value.

molecule	qual	pIC50
COc1cc2ccncc2c(O)c1C [Compound 2, 6-methoxy-7-methyl-8-hydroxy-isoquinolin]	<	3.70
COc1cc2ccncc2c(O)c1Cc1c(OC)c(C)c(O)c2cnccc12	=	3.99
CCc1cc(O)c(Cc2c(OC)cc3ccncc3c2O)c(=O)o1	=	4.41
COc1cc(O)c2cnccc2c1 [Compound 1, 6-methoxy-8-hydroxy-isoquinolin]	=	4.53
CCC(=O)c1c(C)c(O)c(Cc2c(OC)cc3ccncc3c2O)c(O)c1O	=	4.51
CCc1oc(=O)c(Cc2c(OC)cc3ccncc3c2O)c(O)c1C	=	4.95
CCCCC(CC)COC(=O)CC[n+]1ccc2cc(OC)c(C)c(O)c2c1 (centres unmarked)	=	3.70
COc1cc2ccncc2c(O)c1Cc1c(O)cc(O)c2c1[C@@H](C)OC2	=	4.57

====

Molecular target: PTP1B (Homo sapiens)
Sequence (P18031 whole entry): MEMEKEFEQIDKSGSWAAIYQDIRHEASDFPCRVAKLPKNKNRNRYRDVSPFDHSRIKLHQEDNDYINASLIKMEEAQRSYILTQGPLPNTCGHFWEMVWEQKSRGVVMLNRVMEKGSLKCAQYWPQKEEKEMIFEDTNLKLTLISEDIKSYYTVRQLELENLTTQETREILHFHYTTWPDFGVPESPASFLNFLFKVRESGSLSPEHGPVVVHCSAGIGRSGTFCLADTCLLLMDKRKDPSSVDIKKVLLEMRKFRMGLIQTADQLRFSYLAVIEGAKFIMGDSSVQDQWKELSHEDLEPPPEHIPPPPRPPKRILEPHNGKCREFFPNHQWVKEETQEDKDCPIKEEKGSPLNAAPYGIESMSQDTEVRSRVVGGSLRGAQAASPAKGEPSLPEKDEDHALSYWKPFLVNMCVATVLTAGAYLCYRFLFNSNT
Experiment: Protein phosphatase inhibition assay, PTP1B

compound	IC50
COc1cc2ccncc2c(O)c1Cc1c(OC)cc(O)c2cnccc12	150 µM
COc1cc2ccncc2c(O)c1Cc1c(OC)c(C)c(O)c2cnccc12	200 µM
CCc1cc(O)c(Cc2c(OC)cc3ccncc3c2O)c(=O)o1	170 µM
CCc1oc(=O)c(Cc2c(OC)cc3ccncc3c2O)c(O)c1C	37.9 µM
COc1cc2ccncc2c2c(C)c(O)c(C)cc12	> 200 µM
COc1cc2ccncc2c(O)c1C [Compound 2, 6-methoxy-7-methyl-8-hydroxy-isoquinolin]	> 200 µM
COc1cc2ccncc2c(O)c1Cc1c(O)cc(O)c2c1[C@@H](C)OC2	68.8 µM
COc1cc(O)c2cnccc2c1 [Compound 1, 6-methoxy-8-hydroxy-isoquinolin]	182 µM

====

Molecular target: UniProtKB P08575
Sequence (P08575 26-1306): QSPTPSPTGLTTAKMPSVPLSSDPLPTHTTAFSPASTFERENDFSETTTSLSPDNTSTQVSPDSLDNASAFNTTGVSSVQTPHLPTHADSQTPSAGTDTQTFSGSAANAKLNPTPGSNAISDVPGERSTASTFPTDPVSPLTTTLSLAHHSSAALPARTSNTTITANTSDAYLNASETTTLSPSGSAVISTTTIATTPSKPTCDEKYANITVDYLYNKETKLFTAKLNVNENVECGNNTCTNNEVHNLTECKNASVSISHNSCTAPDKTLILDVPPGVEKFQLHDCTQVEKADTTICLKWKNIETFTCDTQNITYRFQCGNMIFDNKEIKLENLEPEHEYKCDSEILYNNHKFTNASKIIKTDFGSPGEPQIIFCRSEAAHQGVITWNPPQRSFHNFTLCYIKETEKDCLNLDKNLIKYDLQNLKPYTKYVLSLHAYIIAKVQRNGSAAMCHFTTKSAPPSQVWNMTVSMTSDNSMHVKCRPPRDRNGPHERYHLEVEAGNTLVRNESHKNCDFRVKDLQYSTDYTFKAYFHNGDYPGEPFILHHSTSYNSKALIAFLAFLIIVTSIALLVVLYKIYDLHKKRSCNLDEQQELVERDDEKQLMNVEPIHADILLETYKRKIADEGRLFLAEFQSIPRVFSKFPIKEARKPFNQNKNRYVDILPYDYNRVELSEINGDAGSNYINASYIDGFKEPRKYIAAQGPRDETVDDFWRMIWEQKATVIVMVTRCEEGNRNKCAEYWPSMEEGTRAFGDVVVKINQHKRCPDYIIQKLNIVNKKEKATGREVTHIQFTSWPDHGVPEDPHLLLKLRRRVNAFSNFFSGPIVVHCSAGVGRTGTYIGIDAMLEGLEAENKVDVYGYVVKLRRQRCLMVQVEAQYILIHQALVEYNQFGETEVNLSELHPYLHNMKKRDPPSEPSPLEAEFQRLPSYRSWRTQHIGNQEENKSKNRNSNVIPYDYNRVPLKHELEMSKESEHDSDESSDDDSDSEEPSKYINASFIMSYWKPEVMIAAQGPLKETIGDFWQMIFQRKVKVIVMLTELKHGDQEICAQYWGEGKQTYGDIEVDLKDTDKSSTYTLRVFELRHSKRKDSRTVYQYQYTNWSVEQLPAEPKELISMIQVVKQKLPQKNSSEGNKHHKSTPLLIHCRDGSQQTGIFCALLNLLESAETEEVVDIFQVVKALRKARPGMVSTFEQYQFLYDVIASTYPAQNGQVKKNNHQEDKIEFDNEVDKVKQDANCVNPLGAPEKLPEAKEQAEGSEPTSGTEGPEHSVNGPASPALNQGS
Experiment: Protein phosphatase inhibition assay, CD45
IC50 values by entry
metric_name: IC50 (µM)

molecule	metric_name	units_label	qual	recorded_number
COc1cc2ccncc2c(O)c1Cc1c(O)c(OC)c2c(c1O)C(=O)O[C@H]2[C@@H](C)O	IC50	µM	=	100
COc1cc2ccncc2c2c(C)c(O)c(C)cc12	IC50	µM	>	200
COc1cc2ccncc2c(O)c1Cc1c(OC)cc(O)c2cnccc12	IC50	µM	=	5.6
COc1cc2ccncc2c(O)c1CC(C)C(=O)O (stereo not drawn)	IC50	µM	>	200
COc1cc2ccncc2c(O)c1Cc1c(OC)cc2ccncc2c1O	IC50	µM	=	8.4
COc1cc2ccncc2c(O)c1Cc1c(O)cc(O)c(OC)c1C(=O)C(C)=O	IC50	µM	=	49
